assay: Oral bioavailability in Fischer rat at 10 mg/kg; type: ADME, organism-based; settings: in vivo
QUANTITY NAME: bioavailability (%)
// units = %; emit number, no label

Indicate its recorded bioavailability; the molecule in question is Cl.O=C(O)c1ccc(C[C@H]2CC[C@H]3CN[C@H](C(=O)O)C[C@H]3C2)cc1
62.5

====

Consider compounds characterized by their Ki with Glutamate receptor 2 (Homo sapiens, UniProt P42262).
Sequence (P42262 whole entry): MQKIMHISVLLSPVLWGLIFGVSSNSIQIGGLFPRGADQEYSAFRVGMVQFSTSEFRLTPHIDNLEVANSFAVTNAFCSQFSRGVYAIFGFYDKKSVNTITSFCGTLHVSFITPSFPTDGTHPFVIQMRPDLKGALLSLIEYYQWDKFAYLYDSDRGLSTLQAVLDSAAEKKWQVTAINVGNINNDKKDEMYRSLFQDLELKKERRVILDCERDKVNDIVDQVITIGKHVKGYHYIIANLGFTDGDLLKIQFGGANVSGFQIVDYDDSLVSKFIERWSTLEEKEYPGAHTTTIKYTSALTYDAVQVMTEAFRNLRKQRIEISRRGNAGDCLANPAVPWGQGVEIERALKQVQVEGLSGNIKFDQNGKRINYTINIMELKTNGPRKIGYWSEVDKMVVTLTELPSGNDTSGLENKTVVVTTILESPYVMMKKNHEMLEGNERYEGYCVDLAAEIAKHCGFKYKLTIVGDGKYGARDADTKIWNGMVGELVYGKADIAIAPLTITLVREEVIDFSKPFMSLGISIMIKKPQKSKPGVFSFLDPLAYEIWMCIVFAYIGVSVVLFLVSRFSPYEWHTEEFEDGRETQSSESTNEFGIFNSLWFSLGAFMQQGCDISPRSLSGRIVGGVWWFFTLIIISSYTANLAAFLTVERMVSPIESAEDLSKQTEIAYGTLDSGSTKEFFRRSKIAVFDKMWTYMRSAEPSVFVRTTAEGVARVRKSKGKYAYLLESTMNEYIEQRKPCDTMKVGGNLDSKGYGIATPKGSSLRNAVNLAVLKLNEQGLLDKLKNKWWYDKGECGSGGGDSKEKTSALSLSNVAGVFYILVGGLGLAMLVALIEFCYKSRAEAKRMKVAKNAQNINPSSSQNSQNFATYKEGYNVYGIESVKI
// units = µM; emit number, no label

SUBSTANCE SMILES	Ki, µM
O=C(O)c1cccc(O[C@H]2CC[C@H]3CN[C@H](C(=O)O)C[C@H]3C2)c1	44

Indicate its recorded Ki; the compound in question is O=C(O)c1ccc(Cl)cc1S[C@H]1CC[C@H]2CN[C@H](C(=O)O)C[C@H]2C1
22

Indicate its recorded Ki; the compound in question is O=C(O)c1ccc(Cl)cc1O[C@H]1CC[C@H]2CN[C@H](C(=O)O)C[C@H]2C1
151

Indicate its recorded Ki; the compound in question is O=C(O)c1cc(Cl)ccc1O[C@H]1CC[C@H]2CN[C@H](C(=O)O)C[C@H]2C1
19

Indicate its recorded Ki; the compound in question is O=C(O)c1ccccc1N[C@H]1CC[C@H]2CN[C@H](C(=O)O)C[C@H]2C1
77

Indicate its recorded Ki; the compound in question is O=C(O)c1cc(Cl)ccc1S[C@H]1CC[C@H]2CN[C@H](C(=O)O)C[C@H]2C1
42
